Entry source: ChEMBL document CHEMBL3045443

System: Scenedesmus acutus
test.description: Herbicidal activity against Scenedesmus acutus assessed as chlorophyll content per ml of packed-cell volume at 10^-5 M autotrophically for 20 hr by phytotoxicity assay (reference value: 5.32 mg/ml pcv)
Format: functional
result.type: Activity

// query Quick one: Activity of "NC1=C(Cl)C(=O)c2ccccc2C1=O" ?
// result 0.07 mg

// query Dear colleague, I am looking for the recorded Activity of the following compound: "O=C1C2=C(CCCC2)C(=O)N1c1ccc(Cl)cc1"
// result 0.17 mg

// query Fill in: Activity of CCC(C)c1cc([N+](=O)[O-])cc([N+](=O)[O-])c1O (centres undefined) is ___
// result 5.91 mg

// query For "N#Cc1cc(I)c(O)c(I)c1" , what is its reported Activity?
// result 5.82 mg

---

Tested on: Scenedesmus acutus
test.description: Herbicidal activity against Scenedesmus acutus assessed as packed-cell volume per ml of culture at 10^-5 M autotrophically for 20 hr by phytotoxicity assay (reference value: 6.6 ul pcv/ml)
Assay type: functional
For each of the compounds below, state its Activity.
Use µL as the unit, but write only the number.

// query Form entry - test system: Scenedesmus acutus; read-out: Activity; compound: CCC(C)c1cc([N+](=O)[O-])cc([N+](=O)[O-])c1O (centres undefined) [DINOSEB]
// result 5.3

// query What measured Activity is associated with O=C1C2=C(CCCC2)C(=O)N1c1ccc(Cl)cc1 [CHLOROPHTHALIUM] on Scenedesmus acutus?
// result 2.4

// query Quick check: Activity on Scenedesmus acutus, item "NC1=C(Cl)C(=O)c2ccccc2C1=O" ?
// result 2.6

// query So what Activity did N#Cc1cc(I)c(O)c(I)c1 [IOXYNIL] get with Scenedesmus acutus?
// result 5.7

---

Provide the recorded Activity for the entries that follow.
Tested on: Scenedesmus acutus
test.description: Herbicidal activity against Scenedesmus acutus assessed as protoporphyrin-IX content per ml of packed-cell volume at 10^-6 M autotrophically for 20 hr by phytotoxicity assay (reference value: 2 nM/ml pcv)
Type: functional
Write down the numeric answer in nM and omit the unit.

// query I would be grateful if you could share the reported Activity for "O=C1C2=C(CCCC2)C(=O)N1c1ccc(Cl)cc1" .
// result 23.5

// query Could you tell me which Activity is on file for "N#Cc1cc(I)c(O)c(I)c1" ?
// result 2.5

// query Consider the compound "NC1=C(Cl)C(=O)c2ccccc2C1=O" and give its measured Activity.
// result 2

// query Bench note: what Activity did CCC(C)c1cc([N+](=O)[O-])cc([N+](=O)[O-])c1O (centres undefined) show?
// result 1.5

---

Tested on: Scenedesmus acutus
test.description: Herbicidal activity against Scenedesmus acutus assessed as packed-cell volume per ml of culture at 10^-6 M autotrophically for 20 hr by phytotoxicity assay (reference value: 6.6 ul pcv/ml)
Type: functional
result.type: Activity (µL)
Field: numeric (µL). Do not append units.

// query Could you tell me which Activity is on file for CCC(C)c1cc([N+](=O)[O-])cc([N+](=O)[O-])c1O (centres undefined) [DINOSEB] ?
// result 6.6

// query Activity for N#Cc1cc(I)c(O)c(I)c1 [IOXYNIL] ?
// result 6.5

// query # lookup: Activity of "NC1=C(Cl)C(=O)c2ccccc2C1=O"
// result 4.2

// query Which measured Activity value corresponds to O=C1C2=C(CCCC2)C(=O)N1c1ccc(Cl)cc1 [CHLOROPHTHALIUM] ?
// result 2.8
